Recorded measurements of K, one per entry
- System: Bifunctional dihydrofolate reductase-thymidylate synthase (Plasmodium falciparum K1)
- Protocol: Binding affinity to Plasmodium falciparum DHFR assessed as binding constant (kon) by surface plasmon resonance analysis
Experimental readout: K (M⁻¹ s⁻¹)

1) O=C(O)c1ccc(-c2ccc(O)cc2)cc1: 14.8
2) O=C(O)c1ccc(-n2cccc2)cc1: 14.6
3) O=C(O)c1ccc(-c2ccccc2)cn1: 24.5
4) O=C(O)c1ccc(-c2ccccc2F)o1: 7.61
5) O=C(O)c1cccc(-c2ccccc2)n1: 9.99
6) O=C(O)c1cccc(-c2cccnc2)c1: 16.3
7) O=C(O)c1ccccc1-c1ccco1: 40
8) O=C(O)c1cccc(-c2ccncc2)c1: 6.41
9) O=C(O)c1ccc(-c2cnco2)cc1: 5.26
